test: Therapeutic index, ratio of CC50 for human TZM-bl cells to EC50 for HIV-1 infected in TZM-bl cells; format: cell-based; conditions: read-out: Ratio CC50/EC50
condition met means recorded selectivity ratio is 2 or above; condition not met means it is below 2.

Ask: Decide: selectivity ratio of COc1ccc(C2=Cc3ccc(F)cc3C(CC(=O)C(C)O)N2c2ccc(O)cc2)cc1 (stereo not given) >= 2?
Result: condition met

Ask: Would you say COc1ccc(C2=Cc3ccc(F)cc3C(CC(C)=O)N2c2ccc(O)cc2)cc1 (stereo not given) shows selectivity ratio at minimum 2?
Result: condition met

Ask: Is reported selectivity ratio greater than or equal to 2 here: COc1ccc(C2=Cc3ccc(F)cc3C(CC(=O)CO)N2c2ccc(C)cc2)cc1 (stereo not given)
Result: condition not met

Ask: Please tell me: is the compound COc1ccc(C2=Cc3ccc(F)cc3C(C[N+](=O)[O-])N2c2ccc(Cl)cc2)cc1 (stereo not given) at or over 2 in terms of selectivity ratio?
Result: condition met

Ask: # bool: selectivity ratio of COc1ccc(C2=Cc3ccc(F)cc3C(CC(=O)CO)N2c2ccc(Cl)cc2)cc1 (stereo not given) >= 2
Result: condition not met

###

test: Cytotoxicity against human Jurkat cells after 48 to 72 hrs by MTT assay; assay type: cell-based
Hi there, I'd appreciate the recorded CC50 for every entry that follows.
# number only, unit µM dropped from output

Ask: Report measured CC50; entry is COc1ccc(C2=Cc3ccc(OC)cc3C(C[N+](=O)[O-])N2c2ccccc2)cc1 (stereo not given)
Result: 22.1

Ask: Given O=[N+]([O-])CC1c2ccccc2C=C(c2ccccc2)N1c1ccccc1 (stereo not given) , respond with its CC50.
Result: 42.3

Ask: Supply CC50 value. Item: COc1ccc(C2=Cc3ccc(F)cc3C(CC(=O)C(C)O)N2c2ccc([N+](=O)[O-])cc2)cc1 (stereo not given)
Result: 6.1

Ask: Give recorded CC50. O=[N+]([O-])CC1c2cc([N+](=O)[O-])ccc2C=C(c2ccccc2)N1c1ccc(Cl)cc1 (stereo not given)
Result: 24.9

Ask: Name the recorded CC50 of the compound listed here: Cc1ccc(C2=Cc3ccccc3C(C[N+](=O)[O-])N2c2ccc(F)cc2)cc1 (stereo not given)
Result: 51.2

###

test: Cytotoxicity against human TZM-bl cells after 48 hrs by Cell-titerGlo assay; assay type: cell-based
metric.name: CC50 at 48 h (µM)
The reply should contain only the number, in µM.

Ask: Return CC50 at 48 h (reported value) for this molecule: COc1ccc(C2=Cc3ccc(F)cc3C(CC(=O)CO)N2c2ccc(C#N)cc2)cc1 (stereo not drawn)
Result: 39.7

Ask: Supply CC50 at 48 h value. Item: COc1ccc(C2=Cc3ccc(F)cc3C(CC(=O)C(C)O)N2c2ccc(Cl)cc2)cc1 (stereo not drawn)
Result: 9.9

Ask: Return CC50 at 48 h for the following molecule: COc1ccc(C2=Cc3ccc(F)cc3C(CC(=O)C(C)O)N2c2ccc([N+](=O)[O-])cc2)cc1 (stereo not drawn)
Result: 10.1

Ask: Tell me its CC50 at 48 h given COc1ccc(C2=Cc3ccc(OC)cc3C(C[N+](=O)[O-])N2c2ccccc2)cc1 (stereo not drawn) as the entry.
Result: 29.4

Ask: Query CC50 at 48 h for COc1ccc(C2=Cc3ccc([N+](=O)[O-])cc3C(CC(C)=O)N2c2ccc(C)cc2)cc1 (stereo not drawn)
Result: 10.6

Ask: Quick one: give measured CC50 at 48 h for COc1ccc(C2=Cc3ccc(F)cc3C(CC(=O)C(C)O)N2c2ccc(F)cc2)cc1 (stereo not drawn)
Result: 14

Ask: Let me know recorded CC50 at 48 h for COc1ccc(C2=Cc3ccc(F)cc3C(CC(=O)C(C)O)N2c2ccc(O)cc2)cc1 (stereo not drawn) , thanks.
Result: 50.9

Ask: Please report the measured CC50 at 48 h for COc1ccc(C2=Cc3ccc(F)cc3C(CC(=O)CO)N2c2ccc(Cl)cc2)cc1 (stereo not drawn)
Result: 8.5

Ask: Give recorded CC50 at 48 h. Cc1ccc(C2=Cc3ccccc3C(C[N+](=O)[O-])N2c2ccc(F)cc2)cc1 (stereo not drawn)
Result: 21.5

Ask: Please give measured CC50 at 48 h of the following entry: COc1ccc(C2=Cc3ccc(F)cc3C(CC(=O)CO)N2c2ccc(C)cc2)cc1 (stereo not drawn)
Result: 23.7

Ask: Report CC50 at 48 h, nothing else, for this molecule: COc1ccc(C2=Cc3ccc(F)cc3C(CC(=O)C(C)O)N2c2ccc(C#N)cc2)cc1 (stereo not drawn)
Result: 24.1

Ask: Tell us which CC50 at 48 h value is on record for COc1ccc(C2=Cc3ccc(F)cc3C(CC(C)=O)N2c2ccc(O)cc2)cc1 (stereo not drawn)
Result: 60.5

Ask: Given the molecule COc1ccc(C2=Cc3ccc([N+](=O)[O-])cc3C(CC(C)=O)N2c2ccc(C#N)cc2)cc1 (stereo not drawn) , write its reported CC50 at 48 h.
Result: 15.4

Ask: Provide measured CC50 at 48 h value, entry: COc1ccc(C2=Cc3ccc(F)cc3C(CC(=O)CO)N2c2ccc(O)cc2)cc1 (stereo not drawn)
Result: 47.7

Ask: Dear colleague, please send me the reported CC50 at 48 h for COc1ccc(C2=Cc3ccc([N+](=O)[O-])cc3C(CC(C)=O)N2c2ccc(F)cc2)cc1 (stereo not drawn) when you can.
Result: 7.7

Ask: Please give the documented CC50 at 48 h of COc1ccc(C2=Cc3ccc(F)cc3C(C[N+](=O)[O-])N2c2ccc(Cl)cc2)cc1 (stereo not drawn)
Result: 32.2

Ask: Write down CC50 at 48 h measured for item COc1ccc(C2=Cc3ccc(F)cc3C(CC(C)=O)N2c2ccc([N+](=O)[O-])cc2)cc1 (stereo not drawn)
Result: 11.2

Ask: Read the entry O=[N+]([O-])CC1c2ccccc2C=C(c2ccccc2)N1c1ccccc1 (stereo not drawn) and write its reported CC50 at 48 h.
Result: 10.3

Ask: Find the measured CC50 at 48 h of COc1ccc(C2=Cc3ccc([N+](=O)[O-])cc3C(CC(C)=O)N2c2ccc(O)cc2)cc1 (stereo not drawn) and report it.
Result: 23.5

Ask: Provide measured CC50 at 48 h value, entry: COc1ccc(C2=Cc3ccc(F)cc3C(CC(=O)CO)N2c2ccc([N+](=O)[O-])cc2)cc1 (stereo not drawn)
Result: 46.4

Ask: Answer with the recorded CC50 at 48 h for the molecule listed here: COc1ccc(C2=Cc3ccc(F)cc3C(CC(=O)C(C)O)N2c2ccc(C)cc2)cc1 (stereo not drawn)
Result: 12.7

Ask: Identify measured CC50 at 48 h corresponding to O=[N+]([O-])CC1c2cc([N+](=O)[O-])ccc2C=C(c2ccccc2)N1c1ccc(Cl)cc1 (stereo not drawn)
Result: 26

###

Each entry below carries its measured IC50, system: UniProt Q7ZJM1.
All answers are understood in µM, so give the number only.

Ask: Answer briefly: IC50 recorded on UniProt Q7ZJM1 for COc1ccc(C2=Cc3ccc(F)cc3C(CC(=O)C(C)O)N2c2ccc(Cl)cc2)cc1 (stereo not drawn)
Result: 11.8

Ask: Report measured IC50 on UniProt Q7ZJM1; entry: COc1ccc(C2=Cc3ccc(F)cc3C(CC(=O)C(C)O)N2c2ccc(F)cc2)cc1 (stereo not drawn)
Result: 7.9

Ask: Specify the recorded IC50 for COc1ccc(C2=Cc3ccc(F)cc3C(CC(C)=O)N2c2ccc(O)cc2)cc1 (stereo not drawn) , system: UniProt Q7ZJM1.
Result: 12

###

target: Human immunodeficiency virus type 1 integrase (Human immunodeficiency virus 1, UniProt Q7ZJM1, G140S); assay: Inhibition of HIV-1 integrase G140S mutant strand transfer activity preincubated for 30 mins followed by addition of FITC-labelled dsDNA for 1 hr by microplate reader analysis
Sequence (Q7ZJM1 entry or part of it G140S): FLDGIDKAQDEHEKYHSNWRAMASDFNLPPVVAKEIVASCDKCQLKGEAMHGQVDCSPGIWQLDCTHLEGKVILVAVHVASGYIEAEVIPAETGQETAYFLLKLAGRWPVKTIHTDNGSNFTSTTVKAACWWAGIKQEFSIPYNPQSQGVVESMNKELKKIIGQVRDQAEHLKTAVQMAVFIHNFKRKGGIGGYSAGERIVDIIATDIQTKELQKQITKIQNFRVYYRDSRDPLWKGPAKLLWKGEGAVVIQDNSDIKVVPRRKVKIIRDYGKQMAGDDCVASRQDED
metric.name: IC50 (µM)
Express it in µM; write the number only.

Ask: Assign IC50 to the following record: COc1ccc(C2=Cc3ccc(F)cc3C(CC(=O)C(C)O)N2c2ccc(C)cc2)cc1 (centres undefined)
Result: 12.7

Ask: Could you please provide reported IC50 for COc1ccc(C2=Cc3ccc(F)cc3C(CC(=O)C(C)O)N2c2ccc(F)cc2)cc1 (centres undefined) ? Thanks!
Result: 8

Ask: State, in one line, measured IC50 of COc1ccc(C2=Cc3ccc([N+](=O)[O-])cc3C(CC(C)=O)N2c2ccc(O)cc2)cc1 (centres undefined)
Result: 7.6

Ask: Please give measured IC50 of the following entry: COc1ccc(C2=Cc3ccc(F)cc3C(CC(=O)C(C)O)N2c2ccc(Cl)cc2)cc1 (centres undefined)
Result: 10.8
